biological target: human HER3 endogenously expressed on human cancer cells (SK-Br-3, BT-474, MCF7) (human, UniProt P21860 20-1342); test: cell-based or functional assay
Classification field: Criterion met = MCF7 pHER3 % inhibition at or over 70%; Criterion not met = MCF7 pHER3 % inhibition under 70%.

| binder | assigned_label |
| --- | --- |
| MOR14537 (antibody, human IgG1, lambda, V domains shown, Tested as IgG) VH: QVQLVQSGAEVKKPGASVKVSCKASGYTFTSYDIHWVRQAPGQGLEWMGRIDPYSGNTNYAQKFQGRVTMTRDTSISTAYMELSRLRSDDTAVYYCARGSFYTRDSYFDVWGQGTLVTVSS VL: QSALTQPASVSGSPGQSITISCTGTSSDVGTYNQVSWYQQHPGKAPKLMIYGVSKRPSGVSNRFSGSKSGNTASLTISGLQAEDEADYYCSSATQKPDVTVFGGGTKLTVLG | Criterion met |
| MOR13656 (antibody, human IgG1, lambda, V domains shown) VH: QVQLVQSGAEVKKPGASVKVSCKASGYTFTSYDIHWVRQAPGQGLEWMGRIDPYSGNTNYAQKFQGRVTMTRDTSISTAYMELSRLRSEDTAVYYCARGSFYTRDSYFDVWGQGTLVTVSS VL: DIALTQPASVSGSPGQSITISCTGTSSDVGTYNQVSWYQQHPGKAPKLMIYGVSKRPSGVSNRFSGSKSGNTASLTISGLQAEDEADYYCAVRDSVWHVFGGGTKLTVLG | Criterion met |
| MOR13666 (antibody, human IgG1, lambda, V domains shown, Tested as IgG) VH: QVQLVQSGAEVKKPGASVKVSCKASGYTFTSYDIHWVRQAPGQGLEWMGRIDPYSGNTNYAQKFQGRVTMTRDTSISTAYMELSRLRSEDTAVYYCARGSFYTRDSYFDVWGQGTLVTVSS VL: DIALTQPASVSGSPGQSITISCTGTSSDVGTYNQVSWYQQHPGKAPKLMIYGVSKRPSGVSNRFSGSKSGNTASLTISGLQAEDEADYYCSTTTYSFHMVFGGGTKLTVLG | Criterion met |
| MOR13654 (antibody, human IgG1, lambda, V domains shown, Tested as IgG) VH: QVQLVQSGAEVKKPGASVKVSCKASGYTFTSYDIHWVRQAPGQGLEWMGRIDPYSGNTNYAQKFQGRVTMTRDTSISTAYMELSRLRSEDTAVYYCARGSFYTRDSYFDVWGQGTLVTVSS VL: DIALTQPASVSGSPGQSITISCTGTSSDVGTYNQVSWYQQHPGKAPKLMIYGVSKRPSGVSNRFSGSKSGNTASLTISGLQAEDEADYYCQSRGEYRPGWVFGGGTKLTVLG | Criterion met |
| MOR12605 (antibody, human IgG1, kappa, V domains shown, Tested as IgG) VH: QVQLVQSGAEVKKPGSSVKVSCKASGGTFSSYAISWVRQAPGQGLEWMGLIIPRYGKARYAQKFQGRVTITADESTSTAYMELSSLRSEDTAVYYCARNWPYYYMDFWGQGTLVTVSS VL: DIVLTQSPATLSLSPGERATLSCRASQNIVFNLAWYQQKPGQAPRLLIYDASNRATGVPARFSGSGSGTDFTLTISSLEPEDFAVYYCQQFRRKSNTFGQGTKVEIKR | Criterion met |
| MOR13658 (antibody, human IgG1, lambda, V domains shown, Tested as IgG) VH: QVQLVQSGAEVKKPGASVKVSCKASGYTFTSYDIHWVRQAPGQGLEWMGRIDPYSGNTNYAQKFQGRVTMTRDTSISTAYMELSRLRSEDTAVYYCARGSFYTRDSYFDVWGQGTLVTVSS VL: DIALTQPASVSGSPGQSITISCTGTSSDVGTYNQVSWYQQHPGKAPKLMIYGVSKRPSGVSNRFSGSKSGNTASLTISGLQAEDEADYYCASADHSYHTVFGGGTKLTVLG | Criterion met |
| MOR12604 (antibody, V domains shown, Tested as IgG) VH: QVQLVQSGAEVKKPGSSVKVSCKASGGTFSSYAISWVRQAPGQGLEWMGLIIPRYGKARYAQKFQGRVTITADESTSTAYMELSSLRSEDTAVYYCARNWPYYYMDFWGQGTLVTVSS VL: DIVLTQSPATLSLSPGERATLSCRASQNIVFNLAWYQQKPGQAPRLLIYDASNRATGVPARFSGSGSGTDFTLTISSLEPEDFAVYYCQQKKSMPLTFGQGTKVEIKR | Criterion met |
| MOR12920 (antibody, human IgG1, lambda, V domains shown) VH: QVQLVQSGAEVKKPGASVKVSCKASGYTFTGYYMHWVRQAPGQGLEWMGDIEPYHGKPLYAQKFQGRVTMTRDTSISTAYMELSRLRSEDTAVYYCARGSFYTRDSYFDVWGQGTLVTVSS VL: DIALTQPASVSGSPGQSITISCTGTSSDVGTYNQVSWYQQHPGNAPKLMIYGVSKRPSGVSNRFSGSKSGNTASLTISGLQAEDEADYYCSSRDLIGHYVFGGGTKLTVLG | Criterion not met |
| MOR13664 (antibody, human IgG1, lambda, V domains shown) VH: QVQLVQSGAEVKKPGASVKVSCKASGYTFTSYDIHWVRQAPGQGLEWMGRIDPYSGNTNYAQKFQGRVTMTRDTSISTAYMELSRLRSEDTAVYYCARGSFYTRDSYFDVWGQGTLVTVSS VL: DIALTQPASVSGSPGQSITISCTGTSSDVGTYNQVSWYQQHPGKAPKLMIYGVSKRPSGVSNRFSGSKSGNTASLTISGLQAEDEADYYCSAYDASTQVVFGGGTKLTVLG | Criterion not met |
| MOR13669 (antibody, human IgG1, lambda, V domains shown) VH: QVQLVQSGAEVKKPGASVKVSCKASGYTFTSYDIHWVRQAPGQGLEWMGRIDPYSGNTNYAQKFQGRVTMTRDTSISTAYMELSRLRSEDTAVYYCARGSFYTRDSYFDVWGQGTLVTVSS VL: DIALTQPASVSGSPGQSITISCTGTSSDVGTYNQVSWYQQHPGKAPKLMIYGVSKRPSGVSNRFSGSKSGNTASLTISGLQAEDEADYYCSTATAMTVSLVFGGGTKLTVLG | Criterion not met |
